Measured inhibition at 1 pM, listed per entry for reference.
Target: HGFR (Homo sapiens, UniProt P08581)
Construct: purchased Upstate 14-526
Sequence (P08581 974-1390 limits assumed): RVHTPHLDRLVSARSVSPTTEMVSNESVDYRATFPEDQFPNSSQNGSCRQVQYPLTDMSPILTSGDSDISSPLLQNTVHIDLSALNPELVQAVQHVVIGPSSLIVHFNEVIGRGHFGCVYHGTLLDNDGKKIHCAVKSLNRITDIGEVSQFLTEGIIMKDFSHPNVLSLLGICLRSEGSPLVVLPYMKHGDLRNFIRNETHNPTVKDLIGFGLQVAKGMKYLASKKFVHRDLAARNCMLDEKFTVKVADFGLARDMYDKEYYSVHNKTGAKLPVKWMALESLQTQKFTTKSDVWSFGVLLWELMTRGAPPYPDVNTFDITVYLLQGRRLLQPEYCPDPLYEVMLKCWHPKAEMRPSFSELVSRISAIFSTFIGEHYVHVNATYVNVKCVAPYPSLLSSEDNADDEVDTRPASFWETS
Experiment: HGFR continuous-coupled spectrophotometric assay
Assay type: biochemical
Settings: at 1 pM; Table 6, library procedure 41; read-out: % Inhibition (percent c-MET inhibition)
Give just the numeric value; % need not be written.

C=C(Cl)/C(=C/O)COc1cc(C(=O)NC2COC3(CCN(Cc4[nH]cnc4C)CC3)C2)cnc1N [Example L-329]; 30
Nc1ncc(C(=O)N2CCN(CCO)CC2)cc1OCc1c(Cl)cccc1Cl [Example L-204]; 51
Nc1ncc(C(=O)NCC(O)CN2CCC(Cc3ccccc3)CC2)cc1OCc1c(Cl)cccc1Cl [Example L-276]; 32

For reference, reported inhibition at 1 pM for Nc1ncc(C(=O)N2CCCC2c2ccncc2)cc1OCc1c(Cl)cccc1Cl [Example L-290] stands at 19

Input CN(CCc1ccccn1)CC1(O)CCN(C(=O)c2cnc(N)c(OCc3c(Cl)cccc3Cl)c2)C1 [Example L-339] . Output inhibition at 1 pM: 18

Just so you know, measured inhibition at 1 pM for Nc1ncc(C(=O)NC2COC3(CCN(c4ncccn4)CC3)C2)cc1OCc1c(Cl)cccc1Cl [Example L-332] came out at 21

In plain terms, Nc1ncc(C(=O)NCCN2CCOCC2)cc1OCc1c(Cl)cccc1Cl [Example L-181] has a documented inhibition at 1 pM of 31

inhibition at 1 pM reported for this compound Nc1ncc(C(=O)N2CCC(Cc3cnccn3)CC2)cc1OCc1c(Cl)cccc1Cl [Example L-315] : 72

###

Biological target: HGFR (Homo sapiens)
Construct: purchased Upstate 14-526
Experiment: HGFR continuous-coupled spectrophotometric assay
Format: biochemical
Settings: at 50 nM; Table 5, library procedure 40; read-out: % inhibition (percent c-MET inhibition)
recordedMetric: inhibition at 0.05 µM (%)
Numeric only. Scale: %

CC(Oc1cc(-c2ccc(C(=O)NCCC#N)cc2)cnc1N)c1c(Cl)ccc(F)c1Cl [Example L-109]; 76
CC(Oc1cc(-c2ccc(C(=O)N(C)CCc3ccncc3)cc2)cnc1N)c1c(Cl)ccc(F)c1Cl [Example L-76]; 73
CC(Oc1cc(-c2ccc(C(=O)NC3CCCCC3)cc2)cnc1N)c1c(Cl)ccc(F)c1Cl [Example L-87]; 56

compound CCN(CCO)C(=O)c1ccc(-c2cnc(N)c(OC(C)c3c(Cl)ccc(F)c3Cl)c2)cc1 [Example L-62] , inhibition at 0.05 µM observed: 94

###

Molecular target: HGFR (Homo sapiens)
Construct: purchased Upstate 14-526
Test: HGFR continuous-coupled spectrophotometric assay
Assay type: biochemical
Settings: at 50 nM; Table 5, library procedure 40; read-out: % inhibition (percent c-MET inhibition)
Measured inhibition at 0.05 µM, listed per entry.
Expressed in %, but write only the number.

The cases that follow already have their inhibition at 0.05 µM on record.
CC(Oc1cc(-c2ccc(C(=O)NC3CCOCC3)cc2)cnc1N)c1c(Cl)ccc(F)c1Cl (stereo not drawn); 73
CC(Oc1cc(-c2ccc(C(=O)NCCN(C)C3CCCCC3)cc2)cnc1N)c1c(Cl)ccc(F)c1Cl (stereo not drawn); 69
CC(Oc1cc(-c2ccc(C(=O)N3CCN(Cc4ccccc4)CC3)cc2)cnc1N)c1c(Cl)ccc(F)c1Cl (stereo not drawn); 62
CCN1CCCC1CNC(=O)c1ccc(-c2cnc(N)c(OC(C)c3c(Cl)ccc(F)c3Cl)c2)cc1 (stereo not drawn); 80
CC(Oc1cc(-c2ccc(C(=O)NCCc3ccccc3)cc2)cnc1N)c1c(Cl)ccc(F)c1Cl (stereo not drawn); 66

The compound identified as CC(Oc1cc(-c2ccc(C(=O)N(C)CCN(C)C)cc2)cnc1N)c1c(Cl)ccc(F)c1Cl (stereo not drawn) registered its inhibition at 0.05 µM at 85

Lookup result for CC(Oc1cc(-c2ccc(C(=O)N3CCC(C(=O)c4ccccc4)CC3)cc2)cnc1N)c1c(Cl)ccc(F)c1Cl (stereo not drawn) ; measured inhibition at 0.05 µM: 61

Lab book: inhibition at 0.05 µM of CCN(CC)C(=O)C1CCCN(C(=O)c2ccc(-c3cnc(N)c(OC(C)c4c(Cl)ccc(F)c4Cl)c3)cc2)C1 (stereo not drawn) noted as 55

###

Target: HGFR (Homo sapiens)
Construct: purchased Upstate 14-526
Assay: HGFR continuous-coupled spectrophotometric assay
Assay type: biochemical
Conditions: at 1 pM; Table 6, library procedure 41; read-out: % Inhibition (percent c-MET inhibition)
I would appreciate it if you labelled entries class 1 when inhibition at 1 pM is 30% or higher, otherwise class 0.

Answered cases to consult:
Nc1ncc(C(=O)N2CCC(CO)CC2)cc1OCc1c(Cl)cccc1Cl; class 1
CC(C)CCNC(=O)c1cnc(N)c(OCc2c(Cl)cccc2Cl)c1; class 0

Switching to the query record.
Assess whether reported inhibition at 1 pM for COCC1CN(CC(N)=O)CCN(C(=O)c2cnc(N)c(OCc3c(Cl)cccc3Cl)c2)C1 (centres unmarked) sits at 30% or higher.
class 0

###

Biological target: Met kinase domain (GST fusion protein) (Homo sapiens)
Construct: Purified GST fusion protein containing the Met kinase domain
Assay: Met transphosphorylation assay (ELISA, poly(glu-tyr) substrate)
Format: biochemical
Settings: Table 2; read-out: Met IC50
recordedMetric: pIC50
Answer as the number alone; pIC50 is minus log10 of concentration in mol/L.

Worked cases, pIC50 given:
CC(Oc1cc(-c2cccc(C(=O)NCCN3CCOCC3)c2)cnc1N)c1c(Cl)ccc(F)c1Cl (stereo not shown) [Example I-321]; 6.74
Nc1ncc(-c2ccc(C(=O)N3CC[C@H](N)C3)cc2)cc1OCc1ccc(F)cc1Cl [Example I-206]; 5.74
CC(Oc1cc(-c2cccc(OCCN3CCOCC3)c2)cnc1N)c1c(Cl)ccc(F)c1Cl (stereo not shown) [Example I-358]; 6.66

// pIC50 lookup, compound = CC(Oc1cc(-c2ccc(C(=O)NCCCN3CCCC3)cc2)cnc1N)c1c(F)ccc(F)c1Cl (stereo not shown) [Example I-336] , result: 7.05

###

Target: Met kinase domain (GST fusion protein) (Homo sapiens, UniProt P08581)
Construct: Purified GST fusion protein containing the Met kinase domain
Test: Met transphosphorylation assay (ELISA, poly(glu-tyr) substrate);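 further: Cell-free ELISA with plate-bound poly(Glu:Tyr 4:1) phosphorylated by GST-fused Met kinase domain plus ATP and Mn2+, phosphotyrosine detected by anti-phosphotyrosine antibody with HRP and ABTS read-out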
Type: biochemical
Conditions: Table 2; read-out: Met IC50
recordedMetric: IC50 (nM)
Give your result in nM as a bare value.

// IC50 value for `CC(=O)N1CCN(C(=O)c2ccc(-c3cnc(N)c(OCc4ccc(C(C)(C)C)cc4)c3)cc2)CC1` : 3000

The reported value for CC(Oc1cc(-c2ccc(OCCN3CCOCC3)cc2)cnc1N)c1c(Cl)ccc(F)c1Cl (stereo not shown) in terms of IC50 is 130

Recorded result, `CN(C)[C@H]1CCN(C(=O)c2cccc(-c3cnc(N)c(OCc4c(F)ccc(F)c4Cl)c3)c2)C1` , IC50: 128

# IC50 (compound: CC(Oc1cc(-c2ccc(C(=O)NCCN3CCCC3)cc2)cnc1N)c1c(F)ccc(F)c1Cl (stereo not shown) ) is 86

###

Biological target: HGFR (Homo sapiens)
Construct: purchased Upstate 14-526
Test: HGFR continuous-coupled spectrophotometric assay
Assay type: biochemical
Conditions: cells prefixed Ki; read-out: Met Ki
recordedMetric: Ki (µM)
Number in µM, nothing else.

Worked examples follow.
CC(Oc1cc(-c2ccc(OCCN3CCCC3)cc2)cnc1N)c1cccc(F)c1Cl (centres unmarked) [Example I-487]; 3.3
CC(Oc1cc(-c2ccc(OCC(=O)O)cc2)cnc1N)c1c(Cl)ccc(F)c1Cl (centres unmarked) [Example I-476]; 0.2
CC(Oc1cc(-c2cnn(CCN(C(C)C)C(C)C)c2)cnc1N)c1c(Cl)ccc(F)c1Cl (centres unmarked) [Example I-466]; 0.47
CC(Oc1cc(C#CC(C)(C)N)ccc1N)c1c(Cl)ccc(F)c1Cl (centres unmarked) [Example I-441]; 1.06
COC(=O)COc1ccc(-c2cnc(N)c(OC(C)c3c(Cl)ccc(F)c3Cl)c2)cc1 (centres unmarked) [Example I-475]; 0.2
CC(C)Oc1c(F)cccc1COc1cc(-c2ccc(C(=O)N3C[C@@H](C)N[C@@H](C)C3)cc2)cnc1N [Example I-473]; 12.7
CC(C)NC(=O)C#Cc1cnc(N)c(OC(C)c2c(Cl)ccc(F)c2Cl)c1 (centres unmarked) [Example I-440]; 0.43

# Ki of CC(Oc1cc(C#CC(=O)NC2CCCCC2)cnc1N)c1c(Cl)ccc(F)c1Cl (centres unmarked) [Example I-439] = 0.46

###

Biological target: HGFR (Homo sapiens)
Construct: purchased Upstate 14-526
Test: HGFR continuous-coupled spectrophotometric assay
Type: biochemical
Conditions: at 1 pM; Table 7, library procedure 42; read-out: % Inhibition (percent c-MET inhibition)
Recorded inhibition at 1 pM, one value per entry.
Could you kindly put the unit after your number?

Guide cases for inhibition at 1 pM, answers given:
Nc1ncc(-c2ccc(C(=O)N3CCC(N4CCCC4)CC3)cc2)cc1OCc1cnc(N)c(N)n1; 9%
COc1c(C)cnc(COc2cc(-c3ccc(C(=O)N4CCC(N5CCCC5)CC4)cc3)cnc2N)c1C; 20%
Nc1ncc(-c2ccc(C(=O)N3CCC(N4CCCC4)CC3)cc2)cc1OCc1cccc(F)c1F; 24%

Value (inhibition at 1 pM, HGFR (Homo sapiens)) for record `Nc1ncc(-c2ccc(C(=O)N3CCC(N4CCCC4)CC3)cc2)cc1OCc1noc(-c2cccc(C(F)(F)F)c2)n1` = 27%
